Listing: IC50 of selected compounds
biological target: NMDA receptor subunits 1A/2B (Rattus norvegicus, UniProt P35439+Q00960); construct: expressed in transfected cells; host or cells: Xenopus laevis oocytes (cRNA injection; clones from Dr. P. H. Seeburg); experiment: Electrophysiological assay at NMDA receptor subunits expressed in Xenopus oocytes, 1A/2B; format: cell-based; conditions: Xenopus oocytes; glutamate 100 μm and glycine 1-100 μm; read-out: Subunits IC50, 1A/2B
Sequence (Q00960 27-1482, other chains not shown): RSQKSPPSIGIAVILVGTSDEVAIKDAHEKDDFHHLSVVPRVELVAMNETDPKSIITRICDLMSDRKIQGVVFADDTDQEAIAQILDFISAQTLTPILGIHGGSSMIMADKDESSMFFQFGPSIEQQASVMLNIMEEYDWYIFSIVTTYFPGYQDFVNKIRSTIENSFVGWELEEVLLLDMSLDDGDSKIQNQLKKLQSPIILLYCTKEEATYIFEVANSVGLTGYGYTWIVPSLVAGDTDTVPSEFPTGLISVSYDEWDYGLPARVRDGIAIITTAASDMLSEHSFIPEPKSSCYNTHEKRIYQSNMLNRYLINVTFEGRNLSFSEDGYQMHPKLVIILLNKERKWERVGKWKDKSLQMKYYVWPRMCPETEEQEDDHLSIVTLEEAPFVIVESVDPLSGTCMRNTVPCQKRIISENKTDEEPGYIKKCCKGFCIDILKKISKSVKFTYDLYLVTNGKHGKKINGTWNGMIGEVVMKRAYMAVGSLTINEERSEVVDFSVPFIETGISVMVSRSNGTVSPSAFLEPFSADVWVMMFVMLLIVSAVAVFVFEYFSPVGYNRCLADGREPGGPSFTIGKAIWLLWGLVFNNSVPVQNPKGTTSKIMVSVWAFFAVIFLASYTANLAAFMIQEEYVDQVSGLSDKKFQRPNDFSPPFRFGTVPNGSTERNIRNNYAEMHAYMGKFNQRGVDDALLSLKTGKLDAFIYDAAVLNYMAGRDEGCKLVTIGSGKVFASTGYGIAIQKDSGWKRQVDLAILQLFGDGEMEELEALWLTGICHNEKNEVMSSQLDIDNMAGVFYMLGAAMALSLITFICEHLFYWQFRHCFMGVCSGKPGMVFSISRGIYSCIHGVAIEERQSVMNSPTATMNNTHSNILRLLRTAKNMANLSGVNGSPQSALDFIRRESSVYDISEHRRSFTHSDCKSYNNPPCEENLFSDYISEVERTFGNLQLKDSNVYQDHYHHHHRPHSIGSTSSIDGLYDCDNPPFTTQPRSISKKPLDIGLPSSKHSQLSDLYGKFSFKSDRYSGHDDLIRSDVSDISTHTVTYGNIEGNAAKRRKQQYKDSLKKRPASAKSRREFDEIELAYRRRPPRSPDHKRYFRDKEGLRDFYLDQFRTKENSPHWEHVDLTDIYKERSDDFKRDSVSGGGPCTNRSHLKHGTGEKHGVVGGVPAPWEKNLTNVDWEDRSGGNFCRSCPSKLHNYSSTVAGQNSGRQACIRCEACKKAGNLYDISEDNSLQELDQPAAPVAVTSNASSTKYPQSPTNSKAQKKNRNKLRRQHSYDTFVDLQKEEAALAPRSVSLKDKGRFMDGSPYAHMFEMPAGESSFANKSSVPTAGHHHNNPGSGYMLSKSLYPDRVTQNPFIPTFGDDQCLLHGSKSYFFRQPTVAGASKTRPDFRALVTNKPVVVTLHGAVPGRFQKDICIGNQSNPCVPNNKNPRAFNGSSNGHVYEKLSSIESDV
Counter-ions that a name gives are not always drawn.

{"compound": "Nc1cccc(OCCN2CCC(Cc3ccccc3)CC2)c1N", "IC50 [nM]": 310}
{"compound": "Fc1cccc(OCCCN2CCC(Cc3ccccc3)CC2)c1 [Ex. 22, hydrobromide]", "IC50 [nM]": 900}
{"compound": "CN(CCN1CCC(Cc2ccccc2)CC1)c1ccc(O)cc1 [Ex. 163, dihydrochloride]", "IC50 [nM]": 100}
{"compound": "Fc1ccc(OCCN2CCC(Cc3ccccc3)CC2)cc1 [Ex. 103, hydrochloride]", "IC50 [nM]": 1000}
{"compound": "Oc1ccc(OCCN2CCC(c3ccccc3)CC2)cc1 [Ex. 127, hydrochloride]", "IC50 [nM]": 5000}
{"compound": "Oc1ccccc1OCCN1CCC(Cc2ccc(F)cc2)CC1 [Ex. 158, hydrochloride]", "IC50 [nM]": 300}
{"compound": "O=c1[nH]c2cc(OCCN3CCC(Cc4ccccc4)CC3)ccc2o1", "IC50 [nM]": 1000}
{"compound": "Oc1ccc(CCCN2CCC(Cc3ccccc3)CC2)cc1 [Ex. 106, hydrochloride]", "IC50 [nM]": 20}
{"compound": "OCCc1cccc(OCCN2CCC(Cc3ccccc3)CC2)c1", "IC50 [nM]": 400}
{"compound": "Cc1ccc(CC2CCN(CCOc3ccc(O)c(C)c3)CC2)cc1 [Ex. 153, hydrochloride]", "IC50 [nM]": 40}
{"compound": "OC1(Cc2ccccc2)CCN(CCc2ccccc2)CC1 [Ex. 90, hydrochloride]", "IC50 [nM]": 5000}
